assay: chemical genetic growth profiling, strain panel (AID 1159580);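 note: tested at 20 µM; growth read once vehicle control cultures reached saturation at 30 °C; 1 = growth at the plate median or of vehicle wells; lower values mean less growth of the strain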; conditions: S. cerevisiae deletion strains, growth OD, locus YDL185W, strain tfp1, active compounds read low
The campaign covered roughly 5,500 compounds. About 2,000 (36%) were called active. Roughly 18% stayed inconclusive and do not appear here. Some of the results follow.
OUTCOME_MEASURE: normalized growth
A bare number is all that is needed in reply.

// solved cases for normalized growth follow
• CC(=O)OCC(=O)[C@@]12OC(C)(C)O[C@@H]1CC1C3C[C@H](F)C4=CC(=O)C=C[C@]4(C)[C@@]3(F)[C@@H](O)C[C@@]12C (some centres not stated) = 1.02
• Nc1ccc(S(=O)(=O)Nc2nccs2)cc1 = 1.01
• COc1ccc(C[C@H](N)C(=O)N[C@@H]2[C@@H](CO)OC(n3cnc4c(N(C)C)ncnc43)[C@@H]2O)cc1 (some centres not stated) = 1.02

Memo: CCN(CC)CCOC(=O)C(Cc1cccc2ccccc12)CC1CCCO1 (configuration not stated) , reported normalized growth: 1.01

The value of normalized growth measured for the compound CC1(C)CC2C1CCC1(C)OC2(C)CCC1O (configuration not stated) turned out to be 1.01

Entry COc1cc2c3cc1Oc1cc(ccc1O)OC1c4c(cc(OC)c(O)c4Oc4ccc(cc4)CC3N(C)CC2)CCN1C (configuration not stated) , normalized growth reported as 0.966
